Assay: in vitro
Conditions: PAMPA, pH 7.4
Field: Papp. Provide a value for each of the compounds that follow.
Quick note: number first, unit second.

Exam item: I have this compound here, COc1ccc(-c2noc(C(=O)NCCc3ccc(C(=O)N4CCC4)cc3)n2)cc1OC [compound 14] , and I need its recorded Papp.
Marked response: 7.1 ×10⁻⁶ cm/s

Exam item: Please answer likewise for COc1ccc(-c2noc(C(=O)NCCc3cccnc3)n2)cc1OC [compound 5]
Marked response: 7.7 ×10⁻⁶ cm/s

Exam item: Please answer likewise for COc1ccc(-c2noc(C(=O)NC(C#N)Cc3ccccc3)n2)cc1OC (stereo not shown) [compound 38]
Marked response: 7.2 ×10⁻⁶ cm/s

Exam item: Please answer likewise for COc1ccc(CCNC(=O)c2nc(-c3ccc(OC)c(OC)c3)no2)cc1OC [compound 50]
Marked response: 7.4 ×10⁻⁶ cm/s

Exam item: Please answer likewise for COc1ccc(-c2noc(C(=O)NCCc3ccc(C(N)=O)cc3)n2)cc1OC [compound 11]
Marked response: 2.9 ×10⁻⁶ cm/s

Exam item: Please answer likewise for COc1ccc(-c2noc(C(=O)NCCc3ccc(C(=O)N4CC(F)(F)C4)cc3)n2)cc1OC [compound 17]
Marked response: 6.3 ×10⁻⁶ cm/s

Exam item: Please answer likewise for COc1ccc(-c2noc(C(=O)NCCc3ccc(C(=O)N4CC(OC)C4)cc3)n2)cc1OCC1CC1 [compound 77]
Marked response: 3.6 ×10⁻⁶ cm/s
